target system: CDK-activating kinase assembly factor MAT1/Cyclin-H/Cyclin-dependent kinase 7 (Homo sapiens, UniProt P50613)
Sequence (P51946 whole entry): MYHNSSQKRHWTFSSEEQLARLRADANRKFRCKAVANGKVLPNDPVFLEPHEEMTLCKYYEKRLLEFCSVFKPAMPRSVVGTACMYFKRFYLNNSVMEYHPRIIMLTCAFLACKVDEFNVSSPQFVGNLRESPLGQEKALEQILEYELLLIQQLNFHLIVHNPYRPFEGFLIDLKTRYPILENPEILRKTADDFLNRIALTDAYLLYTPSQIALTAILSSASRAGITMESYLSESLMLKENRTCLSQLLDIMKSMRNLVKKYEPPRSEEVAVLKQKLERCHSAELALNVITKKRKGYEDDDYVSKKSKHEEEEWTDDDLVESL
Sequence (P50613 whole entry): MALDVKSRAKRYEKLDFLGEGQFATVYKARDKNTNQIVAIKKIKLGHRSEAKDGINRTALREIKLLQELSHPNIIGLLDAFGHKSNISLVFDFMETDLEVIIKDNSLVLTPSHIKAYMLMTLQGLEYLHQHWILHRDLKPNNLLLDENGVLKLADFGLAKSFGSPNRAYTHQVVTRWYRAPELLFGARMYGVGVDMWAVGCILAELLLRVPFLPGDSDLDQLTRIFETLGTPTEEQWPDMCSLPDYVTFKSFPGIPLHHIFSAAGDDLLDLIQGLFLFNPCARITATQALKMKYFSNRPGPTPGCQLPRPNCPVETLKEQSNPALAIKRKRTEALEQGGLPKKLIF
Sequence (P51948 whole entry, further chain): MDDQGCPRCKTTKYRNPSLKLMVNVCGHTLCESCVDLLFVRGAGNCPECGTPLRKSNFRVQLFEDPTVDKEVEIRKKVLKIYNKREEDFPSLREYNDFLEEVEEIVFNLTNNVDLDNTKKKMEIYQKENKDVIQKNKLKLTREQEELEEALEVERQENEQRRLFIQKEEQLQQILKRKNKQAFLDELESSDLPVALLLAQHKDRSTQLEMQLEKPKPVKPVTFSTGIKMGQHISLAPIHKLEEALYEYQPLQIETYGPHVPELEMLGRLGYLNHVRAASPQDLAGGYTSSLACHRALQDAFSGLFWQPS
assay procedure: n Vitro CDK7 (20 nM) Assay
Procedure: Compounds with potencies approaching the limit of detection of the assay (IC50 < 10 nM) were further assessed in a more sensitive fluorescence end-point assay. […] Absorbance at 340 nm was followed kinetically at an interval of 2 minutes for 8 hours.The assay was carried out with 100 μl reaction volume per well in a 384-well plate that was pre-spotted nanoliter volume of compounds by LabCyte Echo 555. […]
outcome measure: pIC50
Hey, just a heads up that pIC50 is the negative log base 10 of the concentration in molar.

Query: Any idea what its pIC50 is? The compound is `C[C@@H]1Cc2cnc(NC3CCOCC3)nc2CN1C(=O)[C@H]1CCN(C2COC2)C[C@@H]1c1ccccc1`
Response: 6.24

Source listed as BindingDB's records for patent WO2022064009.
